System: NOMO1
Method description: cell viability relative to DMSO control; higher = less cytotoxic
Condition info: HPLM + 10% dialyzed FBS; 48 h; 0.00702 µM
Criterion: cell viability strictly under 90%. Met: satisfied. Not met: not satisfied.

Example cases with answers are listed next.
Compound	Assigned label
CCCn1c(=O)c2[nH]c(C34CC5CC3C[C@@H](C5)C4)nc2n(CCC)c1=O	not satisfied
COC1=CC=C2C(=CC=NC2=C1)OC3=CC=C(NC(=O)\C4=C(C)\N(CC(C)(C)O)N(C4=O)C5=CC=CC=C5)C=C3F	not satisfied
C[C@H]1CCC/C=C/C2C[C@H](O)C[C@H]2[C@H](O)/C=C/C(=O)O1 (stereo not given in full)	satisfied
CC(=O)SCC(Cc1ccccc1)C(=O)NCC(=O)OCc1ccccc1 (stereo not given)	not satisfied

Identify whether the compound O=C(NC1CC1)c1cccc(-c2ccc3c(NC(=O)C4CC4)n[nH]c3c2)c1 records cell viability below 90%.
not satisfied
